biological target: human TGR5 receptor (Homo sapiens); assay: Human TGR5 cAMP production assay; conditions: human TGR5, luminescent cAMP assay; coded A-D; read-out: Human TGR5 Lum. cAMP Activity (EC50)
pEC50: −log10 of the molar value.
metric.name: pEC50

Cc1cnccc1-c1cccc(C(C)(C)NS(=O)(=O)c2cc(Br)ccc2C)c1 : > 7.00
Cc1c(Cl)cccc1S(=O)(=O)N1CCN(C(=O)CCC(=O)O)CC1c1cccc(-c2ccncc2)c1 (centres unmarked) [Compound 46AF] : 4.52 to 6.00
Cc1noc(C)c1-c1cccc(CNS(=O)(=O)c2cc(F)cc(C(F)(F)F)c2)c1 : 4.52 to 6.00
Cc1cnccc1-c1cccc(C(C)(C)N(CCCC(=O)N[C@@H](CS(=O)(=O)O)C(=O)O)S(=O)(=O)c2cccc(Cl)c2C)c1 [Compound 21AA] : 6.00 to 7.00
CCc1cnccc1-c1cccc([C@H](C)N(CCCCC(=O)O)S(=O)(=O)c2cccc(Cl)c2C)c1 [Compound 16AG] : > 7.00
Cc1cnccc1-c1cccc(CCN(CCCC(=O)NCCS(=O)(=O)O)S(=O)(=O)c2cccc(Cl)c2C)c1 [Compound 20BT] : 6.00 to 7.00
Cc1cnccc1-c1cccc(C(C)(C)N(CCCNC(=O)NCCS(N)(=O)=O)S(=O)(=O)c2cccc(Cl)c2C)c1 [Compound 29AB] : > 7.00
Cc1cnccc1-c1cccc(C2CCCN2S(=O)(=O)c2ccccc2C(F)(F)F)c1 (racemic) : > 7.00

Batch: pEC50 for all items listed.
1. COc1cnccc1-c1cccc(C(C)(C)NS(=O)(=O)c2ccc(C(F)(F)F)cc2[N+](=O)[O-])c1
2. Cc1cnccc1-c1cccc(C(C)N(CCNc2c(NCS(=O)(=O)O)c(=O)c2=O)S(=O)(=O)c2cccc(Cl)c2C)c1 (centres unmarked)
3. Cc1cnccc1-c1cccc(C2CN(C(=O)CCC(=O)O)CCN2S(=O)(=O)c2ccc(F)cc2C(F)(F)F)c1 (centres unmarked) [Compound 46AL]
4. Cc1cnccc1-c1cccc(C2CN(CCCC(=O)NCCS(=O)(=O)O)CCN2S(=O)(=O)c2cccc(Cl)c2C)c1 (centres unmarked) [Compound 53AA]
5. Cc1cnccc1-c1cccc(C(C)(C)N(CCCC(=O)N[C@H](C)C(=O)O)S(=O)(=O)c2cccc(Cl)c2C)c1 [Compound 21AE]
6. Cc1cnccc1-c1cccc(C(CCCCC#N)NS(=O)(=O)c2cccc(Cl)c2C)c1 (centres unmarked)
7. Cc1cnccc1-c1cccc([C@H](C)N(CCOCC(=O)NCCS(=O)(=O)O)S(=O)(=O)c2cccc(Cl)c2C)c1 [Compound 21AO]

1: > 7.00; 2: 4.52 to 6.00; 3: 6.00 to 7.00; 4: 6.00 to 7.00; 5: > 7.00; 6: 6.00 to 7.00; 7: 6.00 to 7.00

---

molecular target: human TGR5 receptor (Homo sapiens); experiment: Human TGR5 cAMP production assay; conditions: human TGR5, luminescent cAMP assay; coded A-D; read-out: Human TGR5 Lum. cAMP Activity (EC50)
metric.name: EC50

COc1cccc(S(=O)(=O)NCc2cccc(-c3c(C)noc3C)c2)c1 : 1 to 30 µM
Cc1c(Cl)cccc1S(=O)(=O)N(CCCC(=O)NCCS(=O)(=O)NCC(=O)O)[C@@H](C)c1cccc(-c2ccncc2CO)c1 [Compound 20BS] : 0.1 to 0.999 µM
COc1cnccc1-c1cccc(C(C)(C)NS(=O)(=O)c2ccc(Cl)cc2Cl)c1 : < 0.1 µM
Cc1cnccc1-c1cccc([C@H](C)N(CCCC(=O)N(CC(=O)O)CC(=O)O)S(=O)(=O)c2cccc(Cl)c2C)c1 [Compound 21AK] : 1 to 30 µM
Cc1cnccc1-c1cccc([C@H](C)N(CCCC(=O)NCCS(=O)(=O)O)S(=O)(=O)c2ccccc2C(F)(F)F)c1 : < 0.1 µM

Answer for every listed entry: what is its EC50? The entries follow.
1. COc1cnccc1-c1cccc(C(NS(=O)(=O)c2ccccc2C(F)(F)F)c2ccccc2)c1 (stereo not shown)
2. Cc1noc(C)c1-c1cccc(CNS(=O)(=O)c2cccc(Cl)c2)c1

1. 0.1 to 0.999 µM
2. 1 to 30 µM

---

Assay: Pharmacokinetic profile in mice
Assay type: in vivo
Details: mouse; fasted male Hilltop mice, 10 mg/kg oral gavage, plasma, mean of three mice
Description: Pharmacokinetic Profile in Mice In this series of studies, the pharmacokinetic profile characteristics of compounds of the present invention were evaluated. The plasma concentration levels of the compounds were monitored in the blood stream (i.e., plasma) after oral gavage using Cmax, and area under the curve (AUC). 8 week old male Hilltop mice were fasted overnight. […] Quantitation of compound levels in plasma was accomplished by LC-MS/MS analysis. […]
Kindly return Yes if reported Cmax is no lower than 8 ng/mL; return No if it is lower.

Answered examples (4):
Cc1cnccc1-c1cccc([C@H](C)N(CCCCNC(=O)CS(=O)(=O)O)S(=O)(=O)c2ccccc2C(F)(F)F)c1 [Compound 31AA] : No
Cc1cnccc1-c1cccc([C@H](C)N(CCCC(=O)NCCNS(=O)(=O)CC(=O)O)S(=O)(=O)c2cccc(Cl)c2C)c1 [Compound 26AA] : No
Cc1cnccc1-c1cccc([C@H](C)N(CCCC(=O)NCCS(=O)(=O)NCCC(=O)O)S(=O)(=O)c2cccc(Cl)c2C)c1 [Compound 21AL] : No
CCc1cnccc1-c1cccc([C@H](C)N(CCCC(=O)NCCNS(N)(=O)=O)S(=O)(=O)c2cccc(Cl)c2C)c1 [Compound 37AA] : Yes

Now for a further molecule.
// inclusive: Cmax at least 8 ng/mL? input: Cc1cnccc1-c1cccc(C(C)(C)N(CCCC(=O)NCC[N+](C)(C)C)S(=O)(=O)c2cccc(Cl)c2C)c1 [Compound 27AD]
Yes

---

For each of the compounds below, state its pEC50.
Biological target: mouse TGR5 receptor (Mus musculus)
Construct: expressed in transfected cells; host or cells: HEK293-EBNA (293 c18, ATCC CRL10852), Hygromycin B selection
Sequence (Q80SS6 whole entry): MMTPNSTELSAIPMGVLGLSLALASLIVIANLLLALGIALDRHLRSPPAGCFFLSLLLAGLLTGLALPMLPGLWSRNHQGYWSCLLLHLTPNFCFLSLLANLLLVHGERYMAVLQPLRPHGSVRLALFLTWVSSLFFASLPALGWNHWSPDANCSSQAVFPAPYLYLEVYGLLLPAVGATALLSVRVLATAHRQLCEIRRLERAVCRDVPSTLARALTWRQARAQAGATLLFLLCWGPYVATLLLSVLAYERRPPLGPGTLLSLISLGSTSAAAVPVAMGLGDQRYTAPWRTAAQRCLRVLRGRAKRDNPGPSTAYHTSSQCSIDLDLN
Test: Mouse TGR5 cAMP production assay (HTRF, Cisbio cAMP HiRange)
Format: cell-based
Conditions: HEK293-EBNA cells overexpressing mouse TGR5, HTRF cAMP HiRange; coded A-D
Experimental: Mouse TGR5 cAMP Production Assay We evaluated compounds of the present invention for their ability to induce cAMP production in HEK-EBNA cells overexpressing the mouse TGR5 receptor. […] In this second cAMP production assay, the cAMP production was measured in 384-well low volume plates (Greiner; cat #784075) using the Cisbio™ cAMP HiRange HTRF Assay Kit (Cisbio) according to the manufacturer's protocol. […]
pEC50: −log10 of the molar value.

These solved cases illustrate the format of a correct answer.
Cc1cnccc1-c1cccc(C2CN(C(=O)OC(C)(C)C)CCN2S(=O)(=O)c2ccccc2C(F)(F)F)c1 (racemic) : 4.52 to 6.00
Cc1c(Cl)cccc1S(=O)(=O)N[C@@H](C)c1cccc(-c2ccnnc2)c1 : 4.52 to 6.00
Cc1cnccc1-c1cccc([C@H](C)N(CCOCC(=O)NCCS(=O)(=O)O)S(=O)(=O)c2cccc(Cl)c2C)c1 [Compound 21AO] : 6.00 to 7.00
Cc1nccc(-c2cccc(C(C)(C)NS(=O)(=O)c3cccc(C(F)(F)F)c3)c2)c1C : 4.52 to 6.00
Cc1cnccc1-c1cccc(C(C)(C)N(CCCC(=O)NCCS(=O)(=O)O)S(=O)(=O)c2cccc(Cl)c2C)c1 [Compound 20AG] : > 7.00

Please state, for each entry, its recorded pEC50.
1. Cc1cnccc1-c1cccc([C@H](C)N(CCCC(=O)NCCNS(=O)(=O)CCC(=O)O)S(=O)(=O)c2cccc(Cl)c2C)c1 [Compound 26AB]
2. Cc1c(Cl)cccc1S(=O)(=O)N1CCN(C(=O)CCC(=O)O)CC1c1cccc(-c2ccncc2Cl)c1 (centres unmarked) [Compound 46AG]
3. CN(C)C(=O)c1cnccc1-c1cccc(C(C)(C)NS(=O)(=O)c2ccccc2C(F)(F)F)c1

1: > 7.00; 2: > 7.00; 3: 4.52 to 6.00

---

I'd appreciate it if you could supply EC50 values for the items below.
Molecular target: human TGR5 receptor (Homo sapiens)
Sequence (Q8TDU6 1-330): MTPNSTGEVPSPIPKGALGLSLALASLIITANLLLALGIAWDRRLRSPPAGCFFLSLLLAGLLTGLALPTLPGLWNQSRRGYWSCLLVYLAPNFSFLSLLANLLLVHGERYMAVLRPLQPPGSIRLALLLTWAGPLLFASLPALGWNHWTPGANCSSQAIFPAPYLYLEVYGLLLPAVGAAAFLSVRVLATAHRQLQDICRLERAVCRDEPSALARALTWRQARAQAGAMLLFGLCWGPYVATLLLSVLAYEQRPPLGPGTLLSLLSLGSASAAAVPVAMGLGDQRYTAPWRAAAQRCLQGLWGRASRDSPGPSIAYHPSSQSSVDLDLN
Assay: Human TGR5 cAMP production assay
Conditions: human TGR5, luminescent cAMP assay; coded A-D; read-out: Human TGR5 Lum. cAMP Activity (EC50)
Counter-ions that a name gives are not always drawn.

Consider the following illustrative entries.
Cc1cnccc1-c1cccc([C@H](C)N(CCCC(=O)NCCOCCOCCOCCC(=O)O)S(=O)(=O)c2cccc(Cl)c2C)c1 [Compound 20AU] : < 100 nM
CC[C@H](NS(=O)(=O)c1ccccc1C(F)(F)F)c1cccc(-c2ccc3nccn3c2)c1 [Compound 5AX] : 1000 to 30000 nM

Here are 2 molecules. What values of EC50 were reported for them?
1. CCc1cnccc1-c1cccc(C2CN(C(=O)[C@@H](N)CS(=O)(=O)O)CCN2S(=O)(=O)c2cccc(Cl)c2C)c1 (mixture of isomers) [Compound 48, hydrochloride]
2. C[C@H](NS(=O)(=O)c1cccc(C(F)(F)F)c1)c1cccc(-c2ccncc2F)c1 [Compound 1AY]

1: 100 to 999 nM; 2: 100 to 999 nM

Would you mind listing EC50 for each of the following molecules?
1. Cc1ccc(S(=O)(=O)NC(CCCCC#N)c2cccc(-c3ccncc3C)c2)nc1 (centres unmarked) [Compound 35B]
2. Cc1cnccc1-c1cccc([C@@H](C)N(CCCC(=O)NCCS(=O)(=O)O)S(=O)(=O)c2cccc(Cl)c2C)c1 [Compound 21AP]
3. CCc1cnccc1-c1cccc(C(C)(C)NS(=O)(=O)c2cccc(Cl)c2C)c1 [Compound 2BY]
4. COc1cnccc1-c1cccc(C(C)(C)NS(=O)(=O)c2ccc(F)cc2C(F)(F)F)c1 [Compound 2BD]
5. Cc1cnccc1-c1cccc([C@H](C)N(CCCC(=O)N2CCC[C@H]2C(=O)O)S(=O)(=O)c2cccc(Cl)c2C)c1 [Compound 21AJ]

1. 1000 to 30000 nM
2. < 100 nM
3. < 100 nM
4. < 100 nM
5. < 100 nM

Please look at the items below and tell me EC50 for each one, in order.
1. Cc1cnccc1-c1cccc([C@H](C)N(CCCC(=O)NCCS(=O)(=O)NCCC(=O)O)S(=O)(=O)c2ccccc2C(F)(F)F)c1 [Compound 20BI]
2. COc1cnccc1-c1cccc(C(C)(C)NS(=O)(=O)c2ccc(Cl)cc2[N+](=O)[O-])c1 [Compound 2BI]

1: < 100 nM; 2: < 100 nM
